// TGI lookup, one value per entry
Test system: MDA-MB-435
Experiment: NCI tumour cell line growth inhibition, 48 h

Sample answers from the record:
>>> reading("O=c1cc(CSc2c(-c3ccccc3)c(=O)n(-c3ccccc3)c(=S)n2-c2ccccc2)[nH]c(=O)[nH]1")
"> 100 µM"
>>> reading("CCCN(CCC)C(=S)N/N=C/c1ccccn1")
"18.8 µM"
>>> reading("C[Si](C)(N[Si](C)(C)OCCc1ccccc1)OCCc1ccccc1")
"> 100 µM"
>>> reading("Cc1ccc(-c2cc3c4c(nc5ccccc53)C(=O)c3cccnc3-c4n2)cc1")
"16 µM"
>>> reading("N#Cc1ccc(CSC2=C(c3ccc(Cl)cc3)S/C(=C3\\SC(SCc4ccc(C#N)cc4)=C(c4ccc(Cl)cc4)S3)S2)cc1")
"> 100 µM"

Entry OCCCNc1ncnc2[nH]ncc12 — recorded TGI = > 100 µM

Entry O=C(CC(C(=O)c1cccs1)c1ccsc1)c1ccccc1 (stereo not given) — recorded TGI = > 100 µM

Entry CC1(C)CC(=O)C2=C(C1)NC1=C(C2)C(=O)CC(C)(C)C1 — recorded TGI = > 100 µM

Entry C=CCN1C[C@H](C)N([C@@H](c2ccc(C(=O)N3CCCCC3)cc2)c2cccc(OC)c2)C[C@H]1C — recorded TGI = > 100 µM

Entry C[C@]12CC[C@@H]3c4cc(O)c(O)cc4CC[C@H]3[C@@H]1CC[C@@H]2O — recorded TGI = 1.1 µM

Entry COC(=O)C1=C(OC(=O)c2ccccc2)C(C(=O)OC)[C@@]2(O)[C@@H](C(=O)OC)[C@H](C)C[C@@H]1[C@@H]2C(=O)OC (stereo not given in full) — recorded TGI = > 100 µM

====

Tested on: SNB-19 CNS
Assay: NCI tumour cell line growth inhibition, 48 h
// TGI lookup, one value per entry

>>> reading("Cn1ccc(C(=O)NCCN(CCNC(=O)c2ccn(C)c(=O)c2O)CCNC(=O)c2ccn(C)c(=O)c2O)c(O)c1=O")
"> 100 µM"
>>> reading("O=C1NC(=O)C(C(=O)C(=O)Nc2ccc(Cl)cc2Cl)C(=O)N1")
"> 100 µM"
>>> reading("CCOC(=O)C1(C(=O)OCC)C[C@@H](C)[C@@H](O)C1")
"> 100 µM"
>>> reading("C=C/C(C)=C\\CC1[C@](C)(O)CC[C@H]2C(C)(C)C(O)CC[C@]12C (stereo partly specified)")
"> 100 µM"

Entry Cn1nc(C(F)(F)F)cc1-c1c[nH]c(OCc2ccc(Cl)cc2)c(-c2ccc(Cl)c(C(F)(F)F)c2)c1=O — recorded TGI = > 50 µM

Entry CCC(O)C1Cc2c(C)cc3c(c2O1)C(=O)c1ccccc1C3=O (stereo unspecified) — recorded TGI = > 100 µM

Entry Nc1nc(Cl)cc(NCC(O)CO)n1 (stereo unspecified) — recorded TGI = > 100 µM

Entry CONC(C)=O — recorded TGI = > 100 µM

Entry NNC(=O)CCSc1ccccc1 — recorded TGI = > 100 µM

Entry COc1ccc(C(O)(c2ccccc2)c2nccc3ccccc23)cc1 (stereo unspecified) — recorded TGI = > 100 µM

Entry CCCCCCCCCCCC(=O)N1CCN(C(C)=O)CC1 — recorded TGI = 40 µM

====

// TGI lookup, one value per entry
Test system: PC-3 prostate
Experiment: NCI tumour cell line growth inhibition, 48 h

Sample answers from the record:
>>> reading("Cc1ccc(-c2n[nH]c(=O)n2NC(=O)c2ccccc2C(=O)O)cc1")
"> 100 µM"
>>> reading("CC(=O)OCC1OC(n2c3c(cc(C#N)c2=S)CCC3)C(OC(C)=O)C(OC(C)=O)C1OC(C)=O (stereo unspecified)")
"> 100 µM"
>>> reading("CC1CC/C(=C\\c2ccc(N(C)C)cc2)C2=C1C(c1ccc(N(C)C)cc1)NC(=S)N2 (stereo unspecified)")
"> 100 µM"

Entry CCOC(=O)C1(N)CCc2[nH][nH]c(=O)c2C1 (stereo unspecified) — recorded TGI = > 100 µM

Entry O=C1/C(=C/c2ccco2)N=C2Sc3c(nc[nH]c3=O)N12 — recorded TGI = > 100 µM

Entry COC(=O)C1=C(OC(=O)c2ccccc2)C(C(=O)OC)[C@@]2(O)[C@@H](C(=O)OC)[C@H](C)C[C@@H]1[C@@H]2C(=O)OC (stereo partly specified) — recorded TGI = > 100 µM

====

// TGI lookup, one value per entry
Test system: U251 CNS
Assay: NCI tumour cell line growth inhibition, 48 h

>>> reading("O=C1C=CC2(C=C1)CCNC1=C2C(=O)c2ccccc2C1=O")
"> 100 µM"
>>> reading("CNC(=O)NCCN1CC2CCC(CC2)C1")
"> 10 µM"
>>> reading("COc1ccc(Sc2nc3cc(N)cc(N)c3nc2-c2ccccc2)cc1")
"> 100 µM"
>>> reading("N=N/C(=C\\c1c(O)[nH]c2ccccc12)c1ccccc1")
"> 83.9 µM"
>>> reading("C/C(=N\\NC(=S)N(C)C)c1nc2ncccc2[nH]1")
"> 100 µM"

Entry CCCc1cc(=O)n2c(C(=O)Nc3cccc(C(=O)OCC)c3)c(C(=O)Nc3ccc(F)cc3)sc2n1 — recorded TGI = 48.6 µM

Entry COc1cc2c(cc1Cc1cccc(Cl)c1F)c(=O)c(C(=O)O)cn2[C@@H](CO)C(C)C — recorded TGI = 12.2 µM

Entry CC1(C)CC(=O)C2=C(C1)NC1=C(C2)C(=O)CC(C)(C)C1 — recorded TGI = > 100 µM

Entry c1ccc(C(NC2=NCCO2)c2ccccc2)cc1 — recorded TGI = > 10 µM

Entry NC(=O)c1ncn(C2OC(CO)C(O)C2O)c1NC=O (stereo unspecified) — recorded TGI = > 100 µM

====

System: NCI-H23 lung
Experiment: NCI tumour cell line growth inhibition, 48 h
reported_endpoint: TGI

>>> reading("CC(=O)Oc1ccc2cc(Oc3ccc(Cl)c(Cl)c3)c(=O)oc2c1")
"> 100 µM"
>>> reading("COc1cc2ncnc(Nc3cccc(Cl)c3F)c2cc1OC(=O)N1CCN(C)C[C@H]1C")
"97.3 µM"
>>> reading("C=C/C(C)=C\\CC1[C@](C)(O)CC[C@H]2C(C)(C)C(O)CC[C@]12C (stereo partly drawn)")
"> 100 µM"
>>> reading("COc1ccc2[nH]cc(C(=O)C(=O)NC34CC5CC(CC(C5)C3)C4)c2c1")
"> 100 µM"
>>> reading("Cc1ccc(NC(=O)c2cc3ccccc3c(N=Nc3cc(S(=O)(=O)O)ccc3O)c2O)c(C)c1")
"56.6 µM"

Entry Cc1c(Cl)nc(Cl)nc1Cl — recorded TGI = 4.64 µM

Entry C(=N\Nc1ccccc1)/c1nc2ccccc2nc1/C=N/Nc1ccccc1 — recorded TGI = 27.2 µM

Entry OCCCNc1ncnc2[nH]ncc12 — recorded TGI = > 100 µM

====

Tested on: SF-295 CNS
Experiment: NCI tumour cell line growth inhibition, 48 h
reported_endpoint: TGI (µM)
Express your answer in µM, writing the number without its unit.

>>> reading("C[C@]12CC[C@@H]3c4cc(OC(F)F)c(OS(N)(=O)=O)cc4CC[C@H]3[C@@H]1CC[C@@H]2OS(N)(=O)=O")
3.14

Turning to the following compound.
Entry CC(=NNC(=S)Nc1cccc(C)c1)c1cccc(C(C)=NNC(=S)Nc2cccc(C)c2)n1 — recorded TGI = 34

====

// TGI lookup, one value per entry
Tested on: OVCAR-5 ovarian
Assay: NCI tumour cell line growth inhibition, 48 h

Sample answers from the record:
>>> reading("O=C(NC(=O)c1ccccc1[N+](=O)[O-])Nc1ccc(Oc2ncc(Cl)cn2)c([N+](=O)[O-])c1")
"> 100 µM"
>>> reading("Cc1ccc(-c2cc3c4c(nc5ccccc53)C(=O)c3cccnc3-c4n2)cc1")
"60.9 µM"
>>> reading("N#Cc1ccc(CSC2=C(c3ccc(Cl)cc3)S/C(=C3\\SC(SCc4ccc(C#N)cc4)=C(c4ccc(Cl)cc4)S3)S2)cc1")
"> 100 µM"

Entry CN1CCC2(CC1)NC(=O)c1c(c3ccc(Cl)c(Cl)c3n1C)C2C#N (stereo not given) — recorded TGI = 24.3 µM

Entry CC/C(=C(/c1ccc(O)cc1)c1ccc(OCCN)cc1)c1ccccc1 — recorded TGI = 20.2 µM

====

System: SK-MEL-28 melanoma
Assay: NCI tumour cell line growth inhibition, 48 h
// GI50 lookup, one value per entry

Sample answers from the record:
>>> reading("Cc1nc(-c2nc(-c3ccc(OC(F)(F)F)cc3)no2)nn1Cc1cccc(N2CCC(S(C)(=O)=O)CC2)c1")
"> 24.7 µM"
>>> reading("Cc1ccc(-c2cc3c4c(nc5ccccc53)C(=O)c3cccnc3-c4n2)cc1")
"19.1 µM"
>>> reading("CC(=O)Nc1c(I)c(NC(C)=O)c(I)c(C(=O)O)c1I")
"> 100 µM"
>>> reading("CCCc1cc(=O)n2c(C(=O)Nc3cccc(C(=O)OCC)c3)c(C(=O)Nc3ccc(F)cc3)sc2n1")
"133 µM"
>>> reading("CCOC(=O)Nc1nc2ccc(Br)cc2s1")
"> 50 µM"
>>> reading("CN1CCC2(CC1)NC(=O)c1c(c3ccc(Cl)c(Cl)c3n1C)C2C#N (centres undefined)")
"1.92 µM"

Entry CCOC(=O)c1cc(C(=O)c2cc(OC)c(OC)c(OC)c2)n2c1ccc1ccccc12 — recorded GI50 = 1.45 µM

Entry CC[C@@H](C(=O)[C@H](C)[C@H](O)[C@@H](C)[C@H]1O[C@H]([C@@H](CC)C(=O)N(CC)CC)CC[C@H]1C)C1O[C@]2(C=C[C@@H](O)[C@]3(CC[C@@](C)([C@H]4CC[C@](O)(CC)[C@H](C)O4)O3)O2)[C@H](C)C[C@@H]1C (some centres undefined) — recorded GI50 = 4.97 µM

Entry O=c1[nH]c(=O)c2cc3cc(C4CC(O)C(CO)O4)ccc3cc2[nH]1 (centres undefined) — recorded GI50 = > 100 µM
